System: human-derived tracheal/bronchial epithelial cells (EpiAirway Tissue Model)
experiment: in vitro
condition-summary: lipid 500 μM (Table 4)
measurement-label: Mean % Relative Cytotoxic Effect (LDH)

Field: example entries. Status: answers known.
According to the records, this compound CCCCCCCCCCCCCCCCOC[C@H](COP(=O)([O-])OCC[N+](C)(C)C)OC(C)=O displays Mean % Relative Cytotoxic Effect (LDH) of 20%

According to the records, this compound CCCCCCCCCCCCCCCCOC[C@H](COP(=O)(O)OCC[N+](C)(C)C)OC displays Mean % Relative Cytotoxic Effect (LDH) of 18%

According to the records, this compound CCCCCCCCCCCCCCCCOC[C@H](COP(=O)(O)OCC[N+](C)(C)C)OCC displays Mean % Relative Cytotoxic Effect (LDH) of 1%

According to the records, this compound CCCCCCCCCCCCCCCCOC[C@H](COP(=O)([O-])OCC[N+](C)(C)C)OC(=O)NC displays Mean % Relative Cytotoxic Effect (LDH) of 11%

Continuing:
According to the records, this compound CCCCCCCCCCCCCCCCOC[C@H](COP(=O)([O-])OCCCCCC[N+](C)(C)C)OC(C)=O displays Mean % Relative Cytotoxic Effect (LDH) of 8%
